Data provenance is ChEMBL document CHEMBL5038585.

assay: Drug excretion in rat urine assessed as drug recovery at 1 mg/kg, iv; format: ADME, organism-based; settings: read-out: Drug recovery
endpointLabel: dose excreted

{"structureString": "Nc1nc2c(ncn2[C@@H]2O[C@@H]3CO[P@@](=O)(S)O[C@H]4C[C@H](Nc5ccncn5)C[C@@H]4CO[P@@](=O)(S)O[C@@H]2[C@@H]3O)c(=O)[nH]1", "endpointLabel": "dose excreted", "result": "< 5%"}

Query molecule follows.
## Task For Nc1nc2c(ncn2[C@@H]2O[C@@H]3CO[P@@](=O)(S)O[C@H]4C[C@H](Oc5ccncn5)C[C@@H]4CO[P@@](=O)(S)O[C@@H]2[C@@H]3O)c(=O)[nH]1 , what is its reported dose excreted?
## Result < 5%
